The reported measurements were obtained from the supplement of paper PMC9170038.

Known apparent KD of MS2 coat protein of a selection of sequences
- Test system: MS2 coat protein
- Protocol Text: apparent KD of MS2 coat protein; higher = weaker reporter binding
- Measurement Context: Eterna round: R107; input ligand: theophylline 2 mM
All answers are understood in µM, so give the number only.

As a guide, the following entries are already answered.
{"Sequence": "AAAUCAGUCUGAAGGAGCGUCACAUGAGGAUCACCCAUGUACAUGAGGAUCACCCAUGUGUGACAGGUAGGUCGCAGAGGAUACC [Exclusion Arginine B GF 4]", "apparent KD of MS2 coat protein / µM": 0.207}
{"Sequence": "AUUGUCAAGUCGGCCGCCACUUCUGCCAUGGCCACCAGUCGACAUGAGGAUCACCCAUGUCUCUUAAGGACCGGGACUUUCAAUU [theeternabot_sameState_MS2_Trp_B_6]", "apparent KD of MS2 coat protein / µM": 0.0139}
{"Sequence": "ACAUGAGGAUCACCCAUGUACAUAAGGGAAGGAGCGCGGUGGAACGCAGGUAGGUCGCCCAUAAUAACAAUAAAUAAAUUCAUGU [#04 Same State - Arginine A]", "apparent KD of MS2 coat protein / µM": 0.0175}
{"Sequence": "AUUACAUGGAUUACAACUAAAUCAACUGAAGGAGCGUGAAGGAUCACAGGUAGGUCGCAGUACAUGAGGAUCACCCAUGUUAUAA [JR_Nu_SSArginiA_Sub021]", "apparent KD of MS2 coat protein / µM": 0.0459}
{"Sequence": "AAACAUGAGGAUCACCCAUGUUCUCCUGUCCGAGGACCGGUACGGCCGCCACUCGGUUCUCGGGAGGAUGGUCAAAGACUAUCCA [Omei Trp A SS B v8]", "apparent KD of MS2 coat protein / µM": 0.0135}

Q) Give recorded apparent KD of MS2 coat protein with MS2 coat protein for the following sequence: ACAUUUAACUGAAGGAGCGUGAUAUGUACAUGAGGAUCACCCAUGUCUUUCAUGUGAUUUUCACAGGUAGGUCGCAGACUAAUGA [JR_ExcArginiB_Sub003]
A) 0.013
